Source: PubChem BioAssay AID1159580

- assay-remarks: chemical genetic growth profiling, strain panel (AID 1159580);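 further: tested at 20 µM; growth read once vehicle control cultures reached saturation at 30 °C; 1 = growth at the plate median or of vehicle wells; lower values mean less growth of the strain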
- experimental-context: S. cerevisiae deletion strains, growth OD, locus YFR003C, strain YPI1
Out of some 5,500 compounds screened, about 2,000 (36%) were called active. About 18% were inconclusive and are not listed. No stated cut-off is given here; in the data, active means normalized growth mostly below about 0.91 (no sharp cut-off); inconclusive means no clear call, values can overlap the other calls; inactive means mostly above about 0.92. The list shows a part of the results.
Respond using exactly one of the listed classes: 1 (active), 0 (inactive)

Hi, do you know how O=C1Nc2ccccc2/C1=C\c1cccc2ccccc12 came out in this test? 0

What do you have for CCCCCCCCCCCCSc1ncn[nH]1 ? 0

What do you have for O=C1/C(=C/c2c[nH]c3ccccc23)CSc2ccccc21 ? 0

What do you have for O=C(Nc1ccc(SC(F)(F)F)cc1)Nc1ccc(Oc2cccc(C(F)(F)F)c2)nc1 ? 0

What do you have for O=C1Nc2ccccc2/C1=C\c1c[nH]c2ccccc12 ? 1

We next turn to a different compound, shown below.
Hi, do you know how O=C(NNc1cc(C(F)(F)F)cc(C(F)(F)F)c1)c1cnc2n(c1=O)CCS2 came out in this test? 0

* * *

- assay-remarks: chemical genetic growth profiling, strain panel (AID 1159580)
- experimental-context: S. cerevisiae deletion strains, growth OD, locus YJL095W, strain BCK1 (second series), active compounds read low
Hit rate of the full screen: of about 5,500 compounds, about 2,000 (36%) were called active. About 18% were inconclusive and are not listed. The list shows a part of the results.
Binary label based on normalized growth with cut-off 1: below gives y, not below gives n.

Recorded results for 2 compounds are shown here.
Input O=C(Oc1cccc2cccnc12)c1ccccc1 ; condition: normalized growth strictly below 1. Does it hold? y

What do you have for COc1c(O)cc2c(c1O)[C@H]1O[C@H](CO)[C@@H](O)[C@H](O)[C@@H]1OC2=O ? n

We next turn to a different compound, shown below.
Input C[C@@H](CO)NC(=O)C1C=C2c3cccc4[nH]cc(c34)C[C@H]2N(C)C1 (stereo not given in full) ; condition: normalized growth strictly below 1. Does it hold? n

* * *

- assay-remarks: chemical genetic growth profiling, strain panel (AID 1159580)
- experimental-context: S. cerevisiae deletion strains, growth OD, locus YLR262C, strain YPT6 (second series)
The campaign covered roughly 5,500 compounds. About 2,000 (36%) were called active. Not shown: some 18% with an inconclusive outcome. No stated cut-off is given here; in the data, active means normalized growth mostly below about 0.91 (no sharp cut-off); inconclusive means no clear call, values can overlap the other calls; inactive means mostly above about 0.92. The list shows a part of the results.
Respond using exactly one of the listed classes: active, inactive

Hi, do you know how O=S(=O)(O)O came out in this test? inactive

What do you have for CCC(=O)OCC(=O)C1(OC(=O)CC)C(C)CC2C3C(Cl)CC4=CC(=O)C=CC4(C)C3C(O)CC21C (stereo not given) ? inactive

What do you have for CCC(=O)O[C@]1(C(=O)CCl)[C@@H](C)CC2C3CCC4=CC(=O)C=C[C@]4(C)[C@@]3(F)[C@@H](O)C[C@@]21C (stereo not given in full) ? inactive

What do you have for CN(C)CC[C@H](c1ccc(Cl)cc1)c1ccccn1 ? inactive

Continuing:
Hi, do you know how CC[C@@]1(O)C(=O)OCc2c1cc1n(c2=O)Cc2cc3ccccc3nc2-1 came out in this test? active

* * *

- assay-remarks: chemical genetic growth profiling, strain panel (AID 1159580);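 further: tested at 20 µM; growth read once vehicle control cultures reached saturation at 30 °C; 1 = growth at the plate median or of vehicle wells; lower values mean less growth of the strain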
- experimental-context: S. cerevisiae deletion strains, growth OD, locus YDL040C, strain nat1, active compounds read low
Screen size: about 5,500 compounds; about 2,000 (36%) were called active. Another 18% or so got no clear call; they are omitted. This is one part of the list.
measured-parameter: normalized growth
One number for each entry.

Requested read-out: normalized growth. Entry: O=c1c(-c2ccc(O)cc2)coc2c(C3O[C@H](CO)[C@@H](O)[C@H](O)[C@H]3O)c(O)ccc12 (some centres not stated) 0.977

Each compound below has a recorded value; state its normalized growth.
1. O=C(CCCN1CCC2(CC1)C(=O)NCN2c1ccccc1)c1ccc(F)cc1
2. COc1c(O)cc2c(c1O)[C@H]1O[C@H](CO)[C@@H](O)[C@H](O)[C@@H]1OC2=O
3. C[C@H]1O[C@H](O[C@H]2[C@H](O)[C@@H](O)[C@@H](O[C@H]3[C@H](O)[C@@H](O)C(O)O[C@@H]3CO)O[C@@H]2CO)[C@H](O)[C@@H](O)[C@@H]1N[C@H]1C=C(CO)[C@@H](O)[C@H](O)[C@H]1O (some centres not stated)
4. NS(=O)(=O)c1cc2c(cc1C(F)(F)F)NC(Cc1ccccc1)NS2(=O)=O (configuration not stated)
5. COC(=O)C[C@H]1C(C)(C)[C@@H](O)[C@@H]2CC3=C4CC(O)O[C@@H](c5ccoc5)[C@]4(C)CCC3[C@@]1(C)C2=O (some centres not stated)
6. CC(=O)N1CCN(c2ccc(OCC3CO[C@](Cn4ccnc4)(c4ccc(Cl)cc4Cl)O3)cc2)CC1 (some centres not stated)
7. COc1cc(-c2cc(=O)c3c(O)c(OC)c(OC)c(OC)c3o2)cc(OC)c1OC

1. 0.982
2. 1.02
3. 0.99
4. 1.01
5. 1.02
6. 0.113
7. 1.01

Each compound below has a recorded value; state its normalized growth.
1. CC12CCC(=O)C=C1CCc1ccccc12 (configuration not stated)
2. COc1ccc(-c2cc(=O)c3c(O)c(OC)c(O[C@H]4O[C@H](CO[C@@H]5O[C@@H](C)[C@H](O)[C@@H](O)[C@H]5O)[C@@H](O)[C@H](O)[C@H]4O)cc3o2)cc1
3. COc1ccc(-c2cc(=O)c3c(O)c(OC)c(OC)c(OC)c3o2)cc1OC
4. O=C(Oc1cccc2cccnc12)c1ccccc1
5. O=C(Oc1ccccc1C(=O)O)c1ccccc1O

[0.967, 0.98, 1.02, 0.951, 0.982]

Each compound below has a recorded value; state its normalized growth.
1. C[C@@H](CO)NC(=O)C1C=C2c3cccc4[nH]cc(c34)C[C@H]2N(C)C1 (some centres not stated)
2. O=c1c2cc(O)c(O)cc2oc2cc(O)c(C3O[C@H](CO)[C@H](O)[C@@H](O)[C@H]3O)c(O)c12 (some centres not stated)
3. COC1CC(O[C@H]2CC[C@]3(C=O)C4CC[C@]5(C)C(C6=CC(=O)OC6)CC[C@]5(O)C4CC[C@]3(O)C2)OC(C)C1O (some centres not stated)
4. C[C@@H]1CCC2[C@](C)(CO)[C@@H](O)CC[C@]2(C)[C@@]12CC[C@@](CO)(CCO)O2 (some centres not stated)

1: 1.01; 2: 1.02; 3: 0.986; 4: 0.972

* * *

- assay-remarks: chemical genetic growth profiling, strain panel (AID 1159580);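 further: tested at 20 µM; growth read once vehicle control cultures reached saturation at 30 °C; 1 = growth at the plate median or of vehicle wells; lower values mean less growth of the strain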
- experimental-context: S. cerevisiae deletion strains, growth OD, locus YLR371W, strain rom2, active compounds read low
Out of some 5,500 compounds screened, about 2,000 (36%) were called active. Another 18% or so got no clear call; they are omitted. The list shows a part of the results.
Exercise: for every item that follows, state its recorded normalized growth.
Give bare numbers.

Example compounds with recorded normalized growth:
Requested read-out: normalized growth. Entry: O=C(CCCN1CCC(O)(c2ccc(Cl)cc2)CC1)c1ccc(F)cc1 1

What do you have for NCC(O)CC(=O)O (configuration not stated) ? 1

What do you have for C[C@H]1O[C@@H](O[C@H]2[C@@H](O)C[C@H](O[C@H]3[C@@H](O)C[C@H](O[C@H]4CC[C@]5(C)C6CC[C@]7(C)[C@@H](C8=CC(=O)OC8)CC[C@]7(O)C6CC[C@@H]5C4)O[C@@H]3C)O[C@@H]2C)C[C@H](O)[C@@H]1O (some centres not stated) ? 0.98

What do you have for C[C@@H]1CCC2[C@](C)(CO)[C@@H](O)CC[C@]2(C)[C@@]12CC[C@@](CO)(CCO)O2 (some centres not stated) ? 0.982

What do you have for CC1(C)[C@@H]2CC[C@@]1(C)C(=O)C2 ? 1

What do you have for CC1=C2C(O)C(=O)OC3CC4C(C)(C)C(=O)C=C[C@]4(C)C(CC1)[C@]23C (some centres not stated) ? 0.985

Proceed to the following item.
Requested read-out: normalized growth. Entry: C[C@H]1OC(O[C@H]2[C@@H](O)CC(O[C@H]3[C@@H](O)C[C@H](O[C@H]4CC[C@]5(C)C6CC[C@]7(C)[C@@H](C8=CC(=O)OC8)[C@@H](O)C[C@]7(O)[C@@H]6CC[C@@H]5C4)O[C@@H]3C)O[C@@H]2C)C[C@H](O)C1O (some centres not stated) 0.989

* * *

- assay-remarks: chemical genetic growth profiling, strain panel (AID 1159580);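 further: tested at 20 µM; growth read once vehicle control cultures reached saturation at 30 °C; 1 = growth at the plate median or of vehicle wells; lower values mean less growth of the strain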
- experimental-context: S. cerevisiae deletion strains, growth OD, locus YJL115W, strain asf1, active compounds read low
The campaign covered roughly 5,500 compounds. About 2,000 (36%) were called active. Roughly 18% stayed inconclusive and do not appear here. The list shows a part of the results.
measured-parameter: normalized growth
One number for each entry.

Requested read-out: normalized growth. Entry: NC(=O)c1ccccc1O 0.985

Each compound below has a recorded value; state its normalized growth.
1. COc1ccc(-c2cc(=O)c3c(O)cc(O)cc3o2)cc1
2. CC(C)C[C@@H](NC(=O)OCC1c2ccccc2-c2ccccc21)C(=O)O
3. CC1=CC(=O)C2C(C)(C)CCC[C@]2(C)[C@@]1(O)CCc1ccoc1 (some centres undefined)
4. O=C(Oc1ccccc1C(=O)O)c1ccccc1O
5. C[C@@H]1CC[C@@]23CCC4(C)[C@@](C=CC5[C@@]6(C)CC[C@H](O)C(C)(C)C6CC[C@]54C)(OC2=O)C3[C@H]1C (some centres undefined)
6. COC1CC(O[C@H]2CC[C@]3(C=O)C4CC[C@]5(C)C(C6=CC(=O)OC6)CC[C@]5(O)C4CC[C@]3(O)C2)OC(C)C1O (some centres undefined)
7. CC(C)=CC1C(CO)C1(C)C (centres undefined)

1: 1; 2: 0.979; 3: 0.982; 4: 0.956; 5: 1.03; 6: 0.964; 7: 1.02

Each compound below has a recorded value; state its normalized growth.
1. CO[C@H]1[C@@H](O)[C@@H](C)O[C@H](O[C@H]2CCC3(C)C4CCC5(C)[C@@H](C6=CC(=O)OC6)CC[C@]5(O)[C@@H]4CC[C@]3(O)C2)[C@@H]1O (some centres undefined)
2. C[C@@H]1CC[C@@]23CCC4(C)[C@@](C=CC5[C@@]6(C)CCC(=O)C(C)(C)C6CC[C@]54C)(OC2=O)C3[C@H]1C (some centres undefined)
3. CC1Cc2ccccc2N1NC(=O)c1ccc(Cl)c(S(N)(=O)=O)c1 (centres undefined)
4. CC(=O)N1CCN(c2ccc(OCC3CO[C@](Cn4ccnc4)(c4ccc(Cl)cc4Cl)O3)cc2)CC1 (some centres undefined)
5. CC1(C)C(=O)CC[C@@]2(C)C1C[C@@H](O)[C@@]1(C)C3=CC(=O)O[C@@H](c4ccoc4)[C@]3(C)CCC21 (some centres undefined)
6. COc1ccc(-c2cc(=O)c3c(O)c(OC)c(O[C@H]4O[C@H](CO[C@@H]5O[C@@H](C)[C@H](O)[C@@H](O)[C@H]5O)[C@@H](O)[C@H](O)[C@H]4O)cc3o2)cc1
7. Cc1ccccc1N1C(=O)c2cc(S(N)(=O)=O)c(Cl)cc2NC1C (centres undefined)
8. NCC(O)CC(=O)O (centres undefined)

1. 1.04
2. 0.993
3. 1
4. 0.113
5. 1.04
6. 0.999
7. 0.965
8. 0.981

Each compound below has a recorded value; state its normalized growth.
1. O=C(O)c1ccccc1O
2. O=C(Oc1cccc2cccnc12)c1ccccc1
3. C[C@@H]1CCC2[C@](C)(CO)[C@@H](O)CC[C@]2(C)[C@@]12CC[C@@](CO)(CCO)O2 (some centres undefined)

1. 0.951
2. 0.951
3. 0.986
